- run.description: inhibitors of HIV fusion peptide binding, primary screen, biochemical, uHTS, fluorescence dequenching (AID 1986)
- condition.info: cell-free peptide binding, 30 min, at 20 µM
The campaign covered roughly 290,000 compounds. About 890 (0.31%) were called active. Cut-off read from the data, not from the text of the source: active = inhibition mostly above about 52% (no sharp cut-off); inactive = mostly below about 76%. The full list was thinned out, with actives kept by preference.
Your response should consist of one outcome taken from true (1) (active), false (0) (inactive)

COc1cc(/C=C2/C(=N)N3N=C(C)SC3=NC2=O)ccc1OS(=O)(=O)c1ccc(C)cc1 | false (0)
COc1ccc(NC(=O)/C(C#N)=C/C=C/c2ccco2)cc1 | true (1)
CN1C(=O)/C(=C/c2cn(CC(=O)NCc3ccco3)c3ccccc23)NC1=S | false (0)

Status in this test for `CCOc1ccc2nc(SCC(=O)c3ccc(C)s3)sc2c1` ?
false (0)

Status in this test for `O=C(NCCSCc1c(F)cccc1Cl)c1ccco1` ?
false (0)

Status in this test for `CC(=O)Nc1ccc(C(=O)OCC(=O)c2ccc(C)c([N+](=O)[O-])c2)cc1` ?
false (0)

* * *

- run.description: inhibitors of HIV fusion peptide binding, primary screen, biochemical, uHTS, fluorescence dequenching (AID 1986)
- condition.info: cell-free peptide binding, 30 min, at 20 µM, active compounds read high
Hit rate of the full screen: of about 290,000 compounds, about 890 (0.31%) were called active. What follows is part of a selection rich in actives, with near analogues and random picks from the rest.
Parameter: inhibition. Scope: all listed entries.
I only need the number, in %, no unit after it.

O=[N+]([O-])c1c(NCCO)cc(N2CCC3(CC2)OCCO3)c2nonc12 | -2.2
N#C/C(=C\c1ccc(-c2ccccc2C(=O)O)o1)c1nc2ccccc2[nH]1 | 29.4
CCOC(=O)C1=C(N)n2c(s/c(=C\c3cccs3)c2=O)=C(C(=O)OCC)C1c1cccs1 (stereo not drawn) | 3.8
CC(CNC(=O)CCS(=O)(=O)c1cc2c(cc1Cl)NC(=O)CO2)c1ccccc1 (stereo not drawn) | -0.3

Note down inhibition recorded for `Cc1cc(/C=C(\C#N)c2nc3ccccc3[nH]2)c(C)n1C`
54

Note down inhibition recorded for `C(=C\c1ccccc1)/CNn1cnnc1`
-2.1

Note down inhibition recorded for `Cc1ccc2nc(/C(C#N)=C/c3ccc(-c4ccccc4C(=O)O)o3)[nH]c2c1`
94.3

Note down inhibition recorded for `O=C1/C(=C\c2ccc(Br)cc2)SC(=S)N1NS(=O)(=O)c1ccccc1`
67.6

Note down inhibition recorded for `O=C(Cc1ccc(Cl)cc1)Nc1cc(S(=O)(=O)N2CCOCC2)ccc1N1CCCC1`
1.2

Note down inhibition recorded for `CC(=O)N1C(=O)/C(=C2\SC(=S)N(NS(=O)(=O)c3ccc(C)cc3)C2=O)c2ccccc21`
55.6

Note down inhibition recorded for `CCOc1cc(/C=N/NC(N)=O)ccc1OCC(=O)Nc1ccc(C)c(C)c1`
-2

Note down inhibition recorded for `CCOc1cc(/C=N\Nc2ccc([N+](=O)[O-])cc2)ccc1OCC(=O)Nc1ccc(C)c(C)c1`
88.4

Note down inhibition recorded for CC(C)NC(=O)CSc1nnc(-c2ccc(S(=O)(=O)N3CCCC3)cc2)n1CC1CCCO1 (stereo not drawn)
-1.1

* * *

- run.description: inhibitors of HIV fusion peptide binding, primary screen, biochemical, uHTS, fluorescence dequenching (AID 1986)
- condition.info: cell-free peptide binding, 30 min, at 20 µM
Screen size: about 290,000 compounds; about 890 (0.31%) were called active. No stated cut-off is given here; in the data, active means inhibition mostly above about 52% (no sharp cut-off); inactive means mostly below about 76%. Shown is part of a subset that was picked to be rich in actives.
Your response should consist of one outcome taken from active, inactive

Status in this test for CCOc1ccc(-c2nn(-c3ccccc3)cc2/C=C2\SC(=S)N(C3CCS(=O)(=O)C3)C2=O)cc1 (stereo not given) ?
active

* * *

- run.description: inhibitors of HIV fusion peptide binding, primary screen, biochemical, uHTS, fluorescence dequenching (AID 1986)
- condition.info: cell-free peptide binding, 30 min, at 20 µM
In all, about 290,000 compounds went through this assay and about 890 (0.31%) were called active. Rule as the data show it: active = inhibition mostly above about 52% (no sharp cut-off); inactive = mostly below about 76%. The sample holds actives, similar compounds and a random draw of the others, so the mix is not that of the screen.
Your response should consist of one outcome taken from 1 for active, 0 for inactive

Status in this test for `O=C(N/N=C/c1cc([N+](=O)[O-])cc([N+](=O)[O-])c1O)/C(=C\c1cccs1)NC(=O)c1ccccc1` ?
1

* * *

- run.description: inhibitors of HIV fusion peptide binding, primary screen, biochemical, uHTS, fluorescence dequenching (AID 1986)
- condition.info: cell-free peptide binding, 30 min, at 20 µM, active compounds read high
Screen size: about 290,000 compounds; about 890 (0.31%) were called active. The full list was thinned out, with actives kept by preference.
Decision: inhibition >= 70% yields yes (1), all other cases yield no (0).

Cc1ccc(-c2onc3ccc(C=O)cc23)cc1 | no (0)
COc1ccccc1/C=C/C=C1\Oc2c(ccc(O)c2CN(C)C)C1=O | yes (1)
CN(C)Cc1c(O)ccc2c1O/C(=C\C=C\c1ccccc1)C2=O | yes (1)
COc1ccccc1/C=C/C=C1\Oc2c(ccc(O)c2CN2CCN(CCO)CC2)C1=O | yes (1)
CCN1CCN(Cc2c(O)ccc3c2O/C(=C\c2ccccc2)C3=O)CC1 | no (0)
O=c1cc(O)c2sc(Nc3ccc(Cl)c(F)c3)nc2[nH]1 | no (0)

Now look at this one.
Hi, just wondering whether `COc1ccc(/C=C2\C(=O)NC(=S)N2C(=O)c2ccc(C)cc2)cc1` shows inhibition of 70% or higher.
no (0)

* * *

- run.description: inhibitors of HIV fusion peptide binding, primary screen, biochemical, uHTS, fluorescence dequenching (AID 1986)
- condition.info: cell-free peptide binding, 30 min, at 20 µM, active compounds read high
Out of some 290,000 compounds screened, about 890 (0.31%) were called active. Shown is part of a subset that was picked to be rich in actives.
Parameter: inhibition. Scope: all listed entries.
I only need the number, in %, no unit after it.

In the examples that follow, each entry is paired with its recorded inhibition.
CC(=O)N1CCC(=O)Nc2ccc([N+](=O)[O-])cc21 | -0.3
CCCCCCc1cc2cc(-c3nnc(-c4ccccc4OC)o3)c(=O)oc2cc1O | 81.8

# input for lookup
Note down inhibition recorded for `COc1ccc(/C=C2\C(=O)NCC(=O)N2C)cc1`
-3.1

* * *

- run.description: inhibitors of HIV fusion peptide binding, primary screen, biochemical, uHTS, fluorescence dequenching (AID 1986)
- condition.info: cell-free peptide binding, 30 min, at 20 µM, active compounds read high
The campaign covered roughly 290,000 compounds. About 890 (0.31%) were called active. Many of the other results were omitted from the sample, so actives are more common in it than they were.
measurement.name: inhibition (%)
I only need the number, in %, no unit after it.

In the examples that follow, each entry is paired with its recorded inhibition.
CCOC(=O)Cn1c2ccc(OC)cc2c2nc3ccccc3nc21 | 3
COc1ccc(-c2nc(NC(=O)C3CC(=O)N(c4ccc5c(c4)OCCO5)C3)sc2C)cc1 (stereo not drawn) | 2.7

# input for lookup
Note down inhibition recorded for `COC(=O)c1ccc(N)cc1O`
-0.9

* * *

Parameter: inhibition. Scope: all listed entries.
- run.description: inhibitors of HIV fusion peptide binding, primary screen, biochemical, uHTS, fluorescence dequenching (AID 1986)
- condition.info: cell-free peptide binding, 30 min, at 20 µM, active compounds read high
About 890 (0.31%) of roughly 290,000 compounds were called active. Shown is part of a subset that was picked to be rich in actives.

In the examples that follow, each entry is paired with its recorded inhibition.
CCOC(=O)c1ccc(N=Nc2c(C)c(C#N)c(O)[nH]c2=O)cc1 | 4.3% (inactive)
COc1cc([N+](=O)[O-])ccc1NC(=O)N1CCCCCC1 | -0.4% (inactive)
Cc1cccc(N=C2NC(=O)S/C2=C\c2ccco2)c1 | 71.9% (active)
COc1ccc(S(=O)(=O)/N=C2/NC(=O)/C(=C/c3ccco3)S2)cc1 | 70.3% (inactive)
Cc1ccc(S(=O)(=O)N(CC(=O)Nc2ccccc2C(=O)O)c2ccccc2C)cc1 | 9.7% (inactive)

Note down inhibition recorded for `COc1ccccc1CN(C)C(=O)CNC(=O)c1cccc(Cl)c1`
0.2% (inactive)

Note down inhibition recorded for `COc1ccc2cc(C#N)c(N3CCOCC3)nc2c1`
2.4% (inactive)

Note down inhibition recorded for `Cc1ccc(N=C2NC(=O)/C(=C\c3ccco3)S2)cc1`
57.5% (active)

Note down inhibition recorded for `CCOc1cc(N2CCOCC2)c(OCC)cc1NC(=O)COC(=O)c1cc2ccccc2cc1O`
-0.9% (inactive)

Note down inhibition recorded for COc1ccnc(CN(C)C(=O)C2CCC(=O)N(Cc3cccc(C(F)(F)F)c3)C2)c1 (centres undefined)
4.4% (inactive)

Note down inhibition recorded for `Cc1ccccc1N1C(=O)c2cccc3c(N(C)CCO)ccc(c23)C1=O`
2.4% (inactive)

Note down inhibition recorded for `O/N=C\c1ccc2noc(-c3ccc(Cl)cc3)c2c1`
0% (inactive)

Note down inhibition recorded for CCC(C)NC(=O)C1CCC(CNS(=O)(=O)c2ccccc2)CC1 (centres undefined)
-0.4% (inactive)

Note down inhibition recorded for `CCOC(=O)c1sc2nc3c(SCC(=O)O)cc(C(=O)c4ccccc4O)cn3c(=O)c2c1C`
49.9% (inactive)
